- System: HMEC cells
- measurement-protocol: pH2AX foci 24 h after contacting, Table 4 lower part (HMEC endothelial cells)
- Format: cell-based, human
- study-conditions: line cell blank (below Hasp); 100 μM; 24 hours after contacting
# pH2AX listing for each entry below
endpoint-name: pH2AX

INSERT INTO assay_data (compound, result) VALUES
  ('[Cl][Cd][Cl]', '8.3 foci'),
  ('CC(=O)[O-].CC(=O)[O-].[Cd+2] [Cd-acetate]', '7 foci'),
  ('[Cl][Cu][Cl]', '1.5 foci'),
  ('O=[N+]([O-])[O-].O=[N+]([O-])[O-].[Pb+2]', '15 foci'),
  ('[Cl][Al]([Cl])[Cl]', '3.7 foci'),
  ('O=S(=O)([O-])[O-].[Cu+2]', '6.4 foci');
